The measured values listed here are drawn from the supplement of paper PMC4862054.

test system: CAL-51; assay: normalised response (% of control), CellTiter-Glo; higher = more viable cells (100 = DMSO, 0 = benzethonium chloride kill control); settings: incubation time: 72 h
Measured attribute: normalised response (%)

INSERT INTO measurements (molecule, value_observed) VALUES
  ('CC[C@@H]1C(=O)OC[C@@H]1Cc1cncn1C [Pilocarpine] (40000 nM)', 134),
  ('CC(=O)O[C@@]12CO[C@@H]1C[C@H](O)[C@@]1(C)C(=O)[C@H](O)C3=C(C)[C@@H](OC(=O)[C@H](O)[C@@H](NC(=O)OC(C)(C)C)c4ccccc4)C[C@@](O)([C@@H](OC(=O)c4ccccc4)[C@H]21)C3(C)C [Docetaxel] (1000 nM)', 32.9),
  ('Nc1nc2[nH]cnc2c(=S)[nH]1 [Thioguanine] (10000 nM)', 28.6),
  ('C[C@]1(O)C[C@@H](c2nc(-c3ccc4ccc(-c5ccccc5)nc4c3)c3c(N)nccn32)C1 [Linsitinib] (10000 nM)', 126),
  ('Nc1ncn([C@@H]2O[C@H](CO)[C@@H](O)[C@H]2O)c(=O)n1 [Azacitidine] (10000 nM)', 91.2),
  ('Cn1cnc2c(F)c(Nc3ccc(Br)cc3Cl)c(C(=O)NOCCO)cc21 [Selumetinib] (10000 nM)', 106),
  ('CC1(C)CNc2cc(NC(=O)c3cccnc3NCc3ccncc3)ccc21 [Motesanib] (10000 nM)', 122),
  ('CC1(C)CCC(CN2CCN(c3ccc(C(=O)NS(=O)(=O)c4ccc(NCC5CCOCC5)c([N+](=O)[O-])c4)c(Oc4cnc5[nH]ccc5c4)c3)CC2)=C(c2ccc(Cl)cc2)C1 [ABT-199] (10000 nM)', 119);

---

normalised response values by entry
tested on: Hs578T; test: normalised response (% of control), CellTiter-Glo; higher = more viable cells (100 = DMSO, 0 = benzethonium chloride kill control); conditions: incubation time: 72 h
Measured attribute: normalised response (%)

INSERT INTO results (compound, measured_attribute, value_observed) VALUES
  ('CC[C@@H]1C(=O)OC[C@@H]1Cc1cncn1C [Pilocarpine] (400 nM)', 'normalised response', 97.8),
  ('Nc1nc2[nH]cnc2c(=S)[nH]1 [Thioguanine] (100 nM)', 'normalised response', 101),
  ('CC(=O)c1c(C)c2cnc(Nc3ccc(N4CCNCC4)cn3)nc2n(C2CCCC2)c1=O [Palbociclib] (100 nM)', 'normalised response', 103),
  ('C[C@]1(O)C[C@@H](c2nc(-c3ccc4ccc(-c5ccccc5)nc4c3)c3c(N)nccn32)C1 [Linsitinib] (100 nM)', 'normalised response', 106);

---

system: Hs578T; test: drug sensitivity score (DSS), CellTox Green (DSS (AUC-based score)); higher = stronger drug effect (viability inhibition or cytotoxicity); extreme values may be limits of the assay; conditions: incubation time: 72 h
drug sensitivity score values by entry
Measured attribute: drug sensitivity score

INSERT INTO assay_data (molecule, value_observed) VALUES
  ('Cn1cnc2c(F)c(Nc3ccc(Br)cc3Cl)c(C(=O)NOCCO)cc21 [Selumetinib]', 0),
  ('CC(C)(C)c1cnc(CSc2cnc(NC(=O)C3CCNCC3)s2)o1 [SNS-032]', 17.1),
  ('CC(=O)c1c(C)c2cnc(Nc3ccc(N4CCNCC4)cn3)nc2n(C2CCCC2)c1=O [Palbociclib]', 0),
  ('C[C@]1(O)C[C@@H](c2nc(-c3ccc4ccc(-c5ccccc5)nc4c3)c3c(N)nccn32)C1 [Linsitinib]', 2.22),
  ('Cn1cc(C2=Nc3cc(NC(=O)C(N)C4CCCCC4)cc4c3C2=CNNC4=O)cn1 (centres undefined)', 1.58),
  ('Cc1sc2c(c1C)C(c1ccc(Cl)cc1)=N[C@@H](CC(=O)OC(C)(C)C)c1nnc(C)n1-2 [(+)JQ1]', 0),
  ('Cc1ccc([N+](=O)[O-])cc1S(=O)(=O)N(C)/N=C/c1cnc2ccc(Br)cn12 [PIK-75]', 25.2),
  ('CC1(C)CNc2cc(NC(=O)c3cccnc3NCc3ccncc3)ccc21 [Motesanib]', 0),
  ('CC1=C2C[C@H]3[C@@H](CC=C4C[C@@H](O)CC[C@@]43C)[C@@H]2CC[C@]12O[C@@H]1C[C@H](C)CN[C@H]1[C@H]2C [Cyclopamine]', 0);

---

system: CAL-120; assay: normalised response (% of control), CellTiter-Glo; higher = more viable cells (100 = DMSO, 0 = benzethonium chloride kill control); conditions: incubation time: 72 h
normalised response values by entry
Measured attribute: normalised response (%)

INSERT INTO assay_data (molecule, measured_attribute, uom, value_observed) VALUES
  ('Nc1nc2[nH]cnc2c(=S)[nH]1 [Thioguanine] (1000 nM)', 'normalised response', '%', 79),
  ('O=NN(CCCl)C(=O)NCCCl [Carmustine] (1 nM)', 'normalised response', '%', 100),
  ('CC1=C2C[C@H]3[C@@H](CC=C4C[C@@H](O)CC[C@@]43C)[C@@H]2CC[C@]12O[C@@H]1C[C@H](C)CN[C@H]1[C@H]2C [Cyclopamine] (1000 nM)', 'normalised response', '%', 106),
  ('C[C@]1(O)C[C@@H](c2nc(-c3ccc4ccc(-c5ccccc5)nc4c3)c3c(N)nccn32)C1 [Linsitinib] (1 nM)', 'normalised response', '%', 97.7),
  ('CC(=O)O[C@@]12CO[C@@H]1C[C@H](O)[C@@]1(C)C(=O)[C@H](O)C3=C(C)[C@@H](OC(=O)[C@H](O)[C@@H](NC(=O)OC(C)(C)C)c4ccccc4)C[C@@](O)([C@@H](OC(=O)c4ccccc4)[C@H]21)C3(C)C [Docetaxel] (0.1 nM)', 'normalised response', '%', 104),
  ('CC1=C2C[C@H]3[C@@H](CC=C4C[C@@H](O)CC[C@@]43C)[C@@H]2CC[C@]12O[C@@H]1C[C@H](C)CN[C@H]1[C@H]2C [Cyclopamine] (10 nM)', 'normalised response', '%', 102),
  ('CC(=O)N(O)CCCCCNC(=O)CCC(=O)N(O)CCCCCNC(=O)CCC(=O)N(O)CCCCCN [Deferoxamine] (1 nM)', 'normalised response', '%', 106),
  ('CC[C@@H]1C(=O)OC[C@@H]1Cc1cncn1C [Pilocarpine] (4 nM)', 'normalised response', '%', 94),
  ('Cn1cnc2c(F)c(Nc3ccc(Br)cc3Cl)c(C(=O)NOCCO)cc21 [Selumetinib] (1 nM)', 'normalised response', '%', 93.3),
  ('Oc1ncnc2[nH]ncc12 [Allopurinol] (1 nM)', 'normalised response', '%', 100),
  ('Oc1ncnc2[nH]ncc12 [Allopurinol] (10 nM)', 'normalised response', '%', 99),
  ('Nc1ncn([C@@H]2O[C@H](CO)[C@@H](O)[C@H]2O)c(=O)n1 [Azacitidine] (10 nM)', 'normalised response', '%', 99.3),
  ('COc1cc2c(cc1O)CC[C@@H]1[C@@H]2CC[C@]2(C)[C@@H](O)CC[C@@H]12 [2-methoxyestradiol] (1 nM)', 'normalised response', '%', 94.9),
  ('O=C1CN2Cc3c(ccc(Cl)c3Cl)N=C2N1 [Anagrelide] (1000 nM)', 'normalised response', '%', 93.6);

---

drug sensitivity score values by entry
tested on: CAL-148; assay: drug sensitivity score (DSS), CellTiter-Blue viability (DSS (AUC-based score)); higher = stronger viability inhibition; extreme values may be limits of the assay; details: incubation time: 72 h
Measured attribute: drug sensitivity score

INSERT INTO results (molecule, measured_attribute, value_observed) VALUES
  ('O=NN(CCCl)C(=O)NCCCl [Carmustine]', 'drug sensitivity score', 0),
  ('CC(C)(C)c1cnc(CSc2cnc(NC(=O)C3CCNCC3)s2)o1 [SNS-032]', 'drug sensitivity score', 19.6),
  ('CC(=O)c1c(C)c2cnc(Nc3ccc(N4CCNCC4)cn3)nc2n(C2CCCC2)c1=O', 'drug sensitivity score', 0),
  ('Nc1ncn([C@@H]2O[C@H](CO)[C@@H](O)[C@H]2O)c(=O)n1 [Azacitidine]', 'drug sensitivity score', 0),
  ('Oc1ncnc2[nH]ncc12 [Allopurinol]', 'drug sensitivity score', 0);

---

test system: MDA-MB-436; experiment: normalised response (% of control), CellTiter-Glo; higher = more viable cells (100 = DMSO, 0 = benzethonium chloride kill control); conditions: incubation time: 72 h
Measured attribute: normalised response (%)

INSERT INTO measurements (compound, measured_attribute, value_observed) VALUES
  ('COc1cc(F)c(F)c(Nc2ccc(I)cc2F)c1NS(=O)(=O)C1(C[C@H](O)CO)CC1 [Refametinib] (10 nM)', 'normalised response', 90.7),
  ('CC(C)(C)c1cnc(CSc2cnc(NC(=O)C3CCNCC3)s2)o1 [SNS-032] (10 nM)', 'normalised response', 101),
  ('C[C@]12CC[C@@H]3c4ccc(OC(=O)N(CCCl)CCCl)cc4CC[C@H]3[C@@H]1CC[C@@H]2O [Estramustine] (1000 nM)', 'normalised response', 98.5),
  ('Cn1cc(C2=Nc3cc(NC(=O)C(N)C4CCCCC4)cc4c3C2=CNNC4=O)cn1 (centres undefined) (1000 nM)', 'normalised response', 53.3),
  ('CC1=C2C[C@H]3[C@@H](CC=C4C[C@@H](O)CC[C@@]43C)[C@@H]2CC[C@]12O[C@@H]1C[C@H](C)CN[C@H]1[C@H]2C [Cyclopamine] (1 nM)', 'normalised response', 106),
  ('CC[C@@H]1C(=O)OC[C@@H]1Cc1cncn1C [Pilocarpine] (4000 nM)', 'normalised response', 91.5),
  ('COc1cc(F)c(F)c(Nc2ccc(I)cc2F)c1NS(=O)(=O)C1(C[C@H](O)CO)CC1 [Refametinib] (1000 nM)', 'normalised response', 78.4),
  ('Cn1cc(C2=Nc3cc(NC(=O)C(N)C4CCCCC4)cc4c3C2=CNNC4=O)cn1 (centres undefined) (10 nM)', 'normalised response', 89.4),
  ('Cn1cnc2c(F)c(Nc3ccc(Br)cc3Cl)c(C(=O)NOCCO)cc21 [Selumetinib] (1 nM)', 'normalised response', 80.8),
  ('Cn1cc(C2=Nc3cc(NC(=O)C(N)C4CCCCC4)cc4c3C2=CNNC4=O)cn1 (centres undefined) (1 nM)', 'normalised response', 86.7),
  ('CC(=O)c1c(C)c2cnc(Nc3ccc(N4CCNCC4)cn3)nc2n(C2CCCC2)c1=O [Palbociclib] (1000 nM)', 'normalised response', 96.6),
  ('C[C@]1(O)C[C@@H](c2nc(-c3ccc4ccc(-c5ccccc5)nc4c3)c3c(N)nccn32)C1 [Linsitinib] (1 nM)', 'normalised response', 96.4),
  ('CC1(C)CNc2cc(NC(=O)c3cccnc3NCc3ccncc3)ccc21 [Motesanib] (1 nM)', 'normalised response', 94.8),
  ('O=C1CN2Cc3c(ccc(Cl)c3Cl)N=C2N1 [Anagrelide] (1 nM)', 'normalised response', 86),
  ('Nc1ncn([C@@H]2O[C@H](CO)[C@@H](O)[C@H]2O)c(=O)n1 [Azacitidine] (10 nM)', 'normalised response', 105),
  ('Cc1sc2c(c1C)C(c1ccc(Cl)cc1)=N[C@@H](CC(=O)OC(C)(C)C)c1nnc(C)n1-2 [(+)JQ1] (1 nM)', 'normalised response', 127),
  ('COc1cc2c(cc1O)CC[C@@H]1[C@@H]2CC[C@]2(C)[C@@H](O)CC[C@@H]12 [2-methoxyestradiol] (1 nM)', 'normalised response', 101),
  ('CC(=O)c1c(C)c2cnc(Nc3ccc(N4CCNCC4)cn3)nc2n(C2CCCC2)c1=O [Palbociclib] (10 nM)', 'normalised response', 95.4),
  ('CC(=O)N(O)CCCCCNC(=O)CCC(=O)N(O)CCCCCNC(=O)CCC(=O)N(O)CCCCCN [Deferoxamine] (10 nM)', 'normalised response', 96.3);
